Every entry's value here was drawn from patent US20220251219A1.

# testedSystem: human Sortilin (human, UniProt Q99523 78-830); also: test concentration or dose not given here
# procedureDetails: cell-based or functional assay
observationType: Percent reduction of Sortilin levels in U251 cells (%)
Use % as the unit, but write only the number.

Check out these entries, answers already filled in.
anti-Sortilin antibody S-19 (antibody, V domains shown) VH: QVQLVQSGAEVKKPGSSVKVSCKASGGTFSSYAISWVRQAPGQGLEWMGGIIPIFGTASYAQKFQGRVTITADESTSTAYMELSSLRSEDTAVYYCARESRIPGSGYYYYYGMDVWGQGTTVTVSS VL: DIQMTQSPSSLSASVGDRVTITCRASQSISSYLNWYQQKPGKAPKLLIYSASSLQSGVPSRFSGSGSGTDFTLTISSLQPEDFATYYCQQTDGKPPTFGGGTKVEIK; 93.4
anti-Sortilin antibody S-64 (antibody, V domains shown) VH: QVQLQESGPGLVKPSETLSLTCAVSGYSISSGYYWGWIRQPPGKGLEWIGSIYHSGSTYYNPSLKSRVTISVDTSKNQFSLKLSSVTAADTAVYYCARAEHRGPRYFDLWGRGTLVTVSS VL: DIQMTQSPSSLSASVGDRVTITCRASQSINSYLNWYQQKPGKAPKLLIYAASSLQSGVPSRFSGSGSGTDFTLTISSLQPEDFATYYCQQLDSTPITFGGGTKVEIK; 37.4
anti-Sortilin antibody S-61 (antibody, V domains shown) VH: QVQLQESGPGLVKPSETLSLTCAVSGYSISSGYYWGWIRQPPGKGLEWIGSIYHSGSTYYNPSLKSRVTISVDTSKNQFSLKLSSVTAADTAVYYCARGSPRFYYGSGSYLDLFDIWGQGTMVTVSS VL: EIVMTQSPATLSVSPGERATLSCRASQSVSSNLAWYQQKPGQAPRLLIYGASTRATGIPARFSGSGSGTEFTLTISSLQSEDFAVYYCQEYLNYPITFGGGTKVEIK; 70.3

Would you kindly look at the next entry?
Need Percent reduction of Sortilin levels in U251 cells of anti-Sortilin antibody S-22 (antibody, V domains shown) VH: QVQLVQSGAEVKKPGSSVKVSCKASGGTFSSYAISWVRQAPGQGLEWMGGIIPIFGTASYAQKFQGRVTITADESTSTAYMELSSLRSEDTAVYYCARQGRKTGYYYYYGMDVWGQGTTVTVSS VL: DIQMTQSPSTLSASVGDRVTITCRASQSISSWLAWYQQKPGKAPKLLIYKASSLESGVPSRFSGSGSGTEFTLTISSLQPDDFATYYCQQADGHITFGGGTKVEIK , thanks.
92.7
